- Assay Protocol: Identification of proteins required for the processing of the EWS-FLI1 nascent transcript;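 further: robust z of luciferase light less the median z of siRNAs with the same seed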
- Condition Info: TC32 Ewing sarcoma NR0B1-luc vs CMV-luc (EWS-FLI1 target promoter against control promoter), 48 h; screened at 20 nM (by protocol)
The full ranking holds about 59,000 sequences; the median of the read-out is about -0.00055, and the lowest 2% start at about -2. This excerpt belongs to a sample that is enriched for the lowest values.
Readout Label: seed-corrected z-score

INSERT INTO measurements (seq, measured_number) VALUES
  ('UCAUUUUCGACCACCUUUC against WBSCR16', -0.738),
  ('UUCAGGGCAUUUAAAGGGC against ZNF629', -0.898),
  ('GAAGCUAUCCCAGCUCUCA against RPL21P131', 0.152),
  ('UCACAAAACACUUUGCCGU against LIMD1', 0.194),
  ('UACUUUUGAUGCACUAGUC against ETAA1', -1.14),
  ('AAACUGAGAAACAUCAAGG against ZNF433', -1.01),
  ('UUCUAGCUCACUGAAGUCC against PYGL', -0.371),
  ('UUUGUUCCAAGGCAUUCAC against CCDC129', 1.07),
  ('UGUAUUUGAAGACUUUCCC against ZNF485', 0.182),
  ('UCUUCGGUCAUGAAUGAGG against TAT', -0.586),
  ('GAAUGUAGCAAAUGAGUCG against MT1H', 0.588),
  ('AUCCUUCUUGAAGUCGGCG against OAF', 2.26);
